# experimental_system: GR (Homo sapiens, UniProt P04150)
# Sequence (P04150 1-777): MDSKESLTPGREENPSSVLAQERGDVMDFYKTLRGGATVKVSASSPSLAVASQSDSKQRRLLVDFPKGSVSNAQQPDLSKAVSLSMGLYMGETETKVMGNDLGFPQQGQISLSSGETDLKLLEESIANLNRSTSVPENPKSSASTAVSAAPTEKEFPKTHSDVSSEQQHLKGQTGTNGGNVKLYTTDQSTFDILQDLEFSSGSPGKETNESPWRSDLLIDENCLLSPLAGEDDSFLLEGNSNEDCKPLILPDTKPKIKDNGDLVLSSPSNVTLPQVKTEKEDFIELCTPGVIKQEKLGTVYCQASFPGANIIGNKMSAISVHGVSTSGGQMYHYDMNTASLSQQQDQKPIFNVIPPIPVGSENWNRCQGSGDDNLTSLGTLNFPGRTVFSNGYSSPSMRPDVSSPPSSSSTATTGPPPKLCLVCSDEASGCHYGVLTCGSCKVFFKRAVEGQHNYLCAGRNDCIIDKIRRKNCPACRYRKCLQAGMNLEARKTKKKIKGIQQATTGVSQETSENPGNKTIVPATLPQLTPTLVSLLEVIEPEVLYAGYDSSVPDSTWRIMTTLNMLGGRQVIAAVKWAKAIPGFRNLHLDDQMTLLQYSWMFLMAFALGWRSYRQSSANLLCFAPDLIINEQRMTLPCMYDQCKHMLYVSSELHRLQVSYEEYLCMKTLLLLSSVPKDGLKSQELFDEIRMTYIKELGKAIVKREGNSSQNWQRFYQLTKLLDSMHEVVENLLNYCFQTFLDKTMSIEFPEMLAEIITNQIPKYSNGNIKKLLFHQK
quantity_name: pIC50
Give bare numbers, as −log10 of the molar value.

**Query** # lookup: pIC50 of "Cn1cc(S(=O)(=O)N2CCC3=Cc4c(cnn4-c4ccc(F)cc4)C[C@]3(C(=O)c3cc(C(F)(F)F)ccn3)C2)cn1"
**Result** 9.82
